Where do these numbers come from? They come from PubChem BioAssay (NCI).

Tested on: TK-10 renal
Protocol Description: NCI-60 one-dose screen, 48 h
Condition Description: 10 µM unless noted
Method: Growth inhibition of the TK-10 human tumor cell line is measured as a screen for anti-cancer activity. Cells are grown in 96 well plates and exposed to the test compound for 48 hours. Compounds are tested at a single concentration, which is 10^-5 M for most compounds. The reported endpoint is percent growth (GI% or GIPRCNT), where numbers from 0 - 100% represent growth inhibition, and numbers from -100% - 0 represent cell death. For example, a value of 40 represents 60% growth inhibition. […]
About 83,000 compounds went through this panel and 20% of them were active in at least one assay; those are over-represented in the sample as a whole. Active and inactive are the calls of the source. The calls were made as follows: active = growth percent below 10; inactive = the rest.
Outcome codes: y for active, n for inactive

{"Compound": "CC1COC(=O)C1 (stereo not given)", "Classification": "n"}
{"Compound": "CCOc1ccc(C(O)CN(C)Cc2ccccc2)cc1Cl (stereo not given)", "Classification": "n"}
{"Compound": "[Br][Pb]([c]1ccccc1)([c]1ccccc1)[c]1ccccc1", "Classification": "y"}
{"Compound": "CCC(C)[C@H]1O[C@]2(C=C[C@@H]1C)C[C@@H]1C[C@@H](C/C=C(\\C)[C@@H](OC3C[C@H](OC)C(O[C@H]4C[C@H](OC)[C@@H](O)[C@H](C)O4)[C@H](C)O3)[C@@H](C)/C=C/C=C3\\CO[C@@H]4[C@H](O)C(C)=C[C@@H](C(=O)O1)[C@]34O)O2 (stereo not given in full)", "Classification": "n"}
{"Compound": "O=C(NCCNC(=O)c1ccc([As](O)O)cc1)c1ccc([As](O)O)cc1", "Classification": "n"}
{"Compound": "Cc1nnc([S-])s1.[Au+].c1ccc([PH+](c2ccccc2)c2ccccc2)cc1", "Classification": "y"}
{"Compound": "Nc1ccc(N)c2c1Oc1ccccc1O2", "Classification": "n"}
{"Compound": "COc1ccc(/C=C\\c2cc(OC)c(OC)c(OC)c2)cc1N/C=C\\C(=O)c1c[nH]c2ccccc12", "Classification": "n"}
{"Compound": "CCOC(=O)/C(C#N)=C/c1ccc(N(CCCl)CCCl)cc1", "Classification": "n"}
{"Compound": "CC(=O)Nc1ccc(C=C2C(=O)NC(=O)NC2=O)cc1", "Classification": "n"}
{"Compound": "CC1(C)CC(=O)CC(C)(C)N1N=O", "Classification": "n"}
{"Compound": "CN(C)P1(N(C)C)=NP(N(C)C)(N(C)C)=NP(N(C)C)(N(C)C)=N1", "Classification": "n"}
{"Compound": "C/C1=C/C(=O)O[C@@H]2C[C@@H](CC[C@H](C)/C=C\\C=C\\CC1)O[C@@](OCCc1ccccc1)([C@@H]1CSC(=O)N1)C2", "Classification": "y"}
{"Compound": "CCCCCCCC(=O)OCC/C=C/C1OC1C1OC(=O)/C=C\\C=C\\c2nc(oc2C)/C=C(/C)CCC2OC2C1OC(=O)NC(C)=O (stereo not given)", "Classification": "y"}
{"Compound": "N#C[Se]CCN1C(=O)C2C(C1=O)[C@H]1C=C[C@@H]2S1 (stereo not given in full)", "Classification": "y"}
{"Compound": "COC(=O)C(=[N+]=[N-])C(=O)OC", "Classification": "n"}
{"Compound": "CNC(=O)Oc1cccc(OC)c1", "Classification": "n"}
{"Compound": "O=[N+]([O-])c1ccccc1N1CCNCC1", "Classification": "n"}
{"Compound": "CC1(C)N=C(N)N=C(N)N1c1ccc(CNC(=O)Nc2ccc(S(=O)(=O)F)c(Cl)c2)c(Cl)c1", "Classification": "n"}
{"Compound": "O=[N+]([O-])c1cc([N+](=O)[O-])c(Cl)c(Cl)c1Cl", "Classification": "y"}
